- SYSTEM UNDER TEST: FGFR1 (UniProt P11362)
- Sequence (P11362 whole entry, looked up): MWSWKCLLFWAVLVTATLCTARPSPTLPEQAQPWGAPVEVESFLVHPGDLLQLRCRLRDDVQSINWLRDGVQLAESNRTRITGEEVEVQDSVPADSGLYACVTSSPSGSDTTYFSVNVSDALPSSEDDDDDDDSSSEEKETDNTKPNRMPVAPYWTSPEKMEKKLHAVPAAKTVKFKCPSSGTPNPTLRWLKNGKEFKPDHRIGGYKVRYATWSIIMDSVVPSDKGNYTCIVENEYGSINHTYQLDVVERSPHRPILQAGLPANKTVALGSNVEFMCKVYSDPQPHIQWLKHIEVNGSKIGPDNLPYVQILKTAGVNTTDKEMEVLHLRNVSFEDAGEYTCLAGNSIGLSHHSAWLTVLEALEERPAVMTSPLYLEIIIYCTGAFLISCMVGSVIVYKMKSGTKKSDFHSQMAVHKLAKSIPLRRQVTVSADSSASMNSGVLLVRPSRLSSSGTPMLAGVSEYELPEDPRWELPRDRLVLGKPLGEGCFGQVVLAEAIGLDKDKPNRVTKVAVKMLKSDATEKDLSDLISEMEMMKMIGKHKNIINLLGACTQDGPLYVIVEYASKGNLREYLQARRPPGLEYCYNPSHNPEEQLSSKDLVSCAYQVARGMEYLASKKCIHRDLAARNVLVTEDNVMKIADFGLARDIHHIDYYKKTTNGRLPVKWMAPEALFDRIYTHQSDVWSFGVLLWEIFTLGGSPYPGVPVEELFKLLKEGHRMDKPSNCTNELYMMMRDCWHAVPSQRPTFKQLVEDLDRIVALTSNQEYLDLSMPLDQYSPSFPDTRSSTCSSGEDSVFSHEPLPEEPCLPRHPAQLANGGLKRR
- ASSAY: phosphorylation enrichment, bacterial display (enrichment ratio); higher = better substrate or ligand; peptides without Tyr show the background;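 further: 11-residue human phosphosite peptides and single-mutation variants displayed on the E. coli surface, counted by deep sequencing, each peptide's frequency after selection divided by its frequency in the unselected input library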;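 further: frequency after pTyr selection over input frequency; kinase dosed for 20-30% of maximal phosphorylation in three min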
PROPERTY: phosphorylation enrichment

- ITEM SEQUENCE: "SIKDKYLTALF [KCNH2_Y611_V612L_YF]"
  PROPERTY: "phosphorylation enrichment"
  TEST VALUE: 0.481
- ITEM SEQUENCE: "CFVFFYSFLLK [PTEN_Y178_R173C_YF]"
  PROPERTY: "phosphorylation enrichment"
  TEST VALUE: 0.423
- ITEM SEQUENCE: "IHFAIYLLKFS [ARMC9_Y107_YF]"
  PROPERTY: "phosphorylation enrichment"
  TEST VALUE: 0.363
- ITEM SEQUENCE: "SLVGCYNLTFM [HS6ST3_Y323]"
  PROPERTY: "phosphorylation enrichment"
  TEST VALUE: 0.589
- ITEM SEQUENCE: "SRGHQYQELPR [KCNH2_Y1009_R1007H]"
  PROPERTY: "phosphorylation enrichment"
  TEST VALUE: 0.609
- ITEM SEQUENCE: "GITVTYTIPKK [UBA5_Y372_A371T]"
  PROPERTY: "phosphorylation enrichment"
  TEST VALUE: 0.522
- ITEM SEQUENCE: "MFDKEYFSVHN [MET_Y1234_YF]"
  PROPERTY: "phosphorylation enrichment"
  TEST VALUE: 1.84

====

- Test system: c-Abl (mouse)
- ASSAY: phosphorylation enrichment, bacterial display (enrichment ratio); higher = better substrate or ligand; peptides without Tyr show the background
Documented phosphorylation enrichment across a set of sequences

- ITEM SEQUENCE: "RDMNACIRPSP [MMAA_Y207_Y207C]"
  phosphorylation enrichment: 0.565
- ITEM SEQUENCE: "PRIKTYMRPSP [TDP1_Y497_H493R]"
  phosphorylation enrichment: 0.425
- ITEM SEQUENCE: "IIRQLYLKWHP [SACS_Y4333_R4331Q]"
  phosphorylation enrichment: 0.608
- ITEM SEQUENCE: "LDLSYYHTSSS [EMD_Y182_P183H]"
  phosphorylation enrichment: 0.672
- ITEM SEQUENCE: "QDGYSYPSRQM [LDLR_Y847]"
  phosphorylation enrichment: 0.663
- ITEM SEQUENCE: "DPLLTYRFPPN [LMNA_Y481_K486N]"
  phosphorylation enrichment: 0.649
- ITEM SEQUENCE: "PLYGEYFTLQI [TP53_Y327_D324Y]"
  phosphorylation enrichment: 9.14
- ITEM SEQUENCE: "GHNDVYISKHV [GRIN2A_Y1423_E1426K]"
  phosphorylation enrichment: 0.376
- ITEM SEQUENCE: "LFMGDYVDRGY [PPP2CA_Y86]"
  phosphorylation enrichment: 0.982
- ITEM SEQUENCE: "GLQDEYDFKCK [STAT1_Y170_D165G]"
  phosphorylation enrichment: 0.831
- ITEM SEQUENCE: "RFGKVYKGHLF [ROR2_Y488]"
  phosphorylation enrichment: 1.69
- ITEM SEQUENCE: "RDLHTYIMPAH [PNMT_Y256_R254H]"
  phosphorylation enrichment: 0.878
- ITEM SEQUENCE: "LAGRYYALKSM [CKB_Y174]"
  phosphorylation enrichment: 0.594
- ITEM SEQUENCE: "SEELHYFVQNH [UQCRC2_Y207]"
  phosphorylation enrichment: 1.07
- ITEM SEQUENCE: "CTTIHYHYMCN [TP53_Y234_N235H]"
  phosphorylation enrichment: 0.661
- ITEM SEQUENCE: "QLFGPYLRIHA [BSCL2_Y213_A212P_YF]"
  phosphorylation enrichment: 0.628
- ITEM SEQUENCE: "NLAAQYTTVGR [SGSH_Y240_D235N]"
  phosphorylation enrichment: 0.416
- ITEM SEQUENCE: "TAIFIYIRPKA [OR10C1_Y258_L255I]"
  phosphorylation enrichment: 0.641
- ITEM SEQUENCE: "TTPYNYSYIFK [RAB14_Y8_A4T]"
  phosphorylation enrichment: 0.706
- ITEM SEQUENCE: "SSFSRYIMMPN [LEF1_Y114_G113R_YF]"
  phosphorylation enrichment: 0.626
- ITEM SEQUENCE: "RGRSTYYWPRP [GAGE12J_Y9]"
  phosphorylation enrichment: 0.859
- ITEM SEQUENCE: "RELGEYALAEF [ALDH1A3_Y492_YF]"
  phosphorylation enrichment: 0.849
- ITEM SEQUENCE: "PIPAAYNKYDQ [CDC73_Y290_R292K]"
  phosphorylation enrichment: 0.944
- ITEM SEQUENCE: "SGEKPYKCSVC [ZNF543_Y283_E287V]"
  phosphorylation enrichment: 0.493
- ITEM SEQUENCE: "HPAGNYSLSSV [ARFGAP3_Y473_Q468H]"
  phosphorylation enrichment: 0.867
- ITEM SEQUENCE: "EEKKKYYDAKI [CASP5_Y103_T106A]"
  phosphorylation enrichment: 0.565
- ITEM SEQUENCE: "QLRPGYFPIPV [BAG3_Y93_I94F]"
  phosphorylation enrichment: 0.53
- ITEM SEQUENCE: "EVVGRYSVHFA [MLH1_Y183_N187Y_YF]"
  phosphorylation enrichment: 0.531
- ITEM SEQUENCE: "AARVSYRLASG [DCHS1_Y1582]"
  phosphorylation enrichment: 0.423
